# Tested on: MOLM-13
# Method: cell viability (% survival relative to DMSO control, bortezomib = 0%); higher = less cytotoxic
# Settings: 10 nM; 72 h
Parameter cell viability: see the listing below.
Response body: numeric value in %, unit text excluded.

CC12CCC(O)CC1CCC1C2CCC2(C)C(C3=CC(=O)OC3)CCC12O (stereo unspecified) [Digitoxigenin]	116
N[C@](CCCCB(O)O)(CCN1CCCCC1)C(=O)O [Arginase inhibitor 1]	99.8
Clc1ccc2c(c1Cl)CNCC2	125
O=P(O)(O)C(O)(Cn1ccnc1)P(=O)(O)O [Zoledronic acid]	117
CC(Cc1ccc(O)c(O)c1)C(C)Cc1ccc(O)c(O)c1 (stereo unspecified) [Masoprocol]	106
Cc1ccc(S(=O)(=O)NC2c3ccccc3Oc3ccccc32)cc1 [AH-7614]	113
COc1cc2c(NC3CCN(C)CC3)nc(N3CCCN(C)CC3)nc2cc1OCCCN(C)C [UNC0224]	111
c1ccc2c(c1)OCC(=C1NCCN1)O2 [Idazoxan]	109
C[C@]12O[C@H](C[C@]1(O)CO)n1c3ccccc3c3c4c(c5c6ccccc6n2c5c31)CNC4=O [Lestaurtinib]	14.4
CC(C(=O)O)C(=O)O [Methylmalonate]	86.8

Next, consider the following compound.
Write down cell viability measured for item C1CCC(C(CC2CCCCN2)C2CCCCC2)CC1.O=C(O)/C=C\C(=O)O (stereo unspecified) [Perhexiline]
99.8

---

# Test system: HL-60
# Method: cell viability (% survival relative to DMSO control); higher = less cytotoxic
# Settings: 0.01 µM; 72 h; co-treatment: pictilisib 100 nM
Catalogue of cell viability values
Give your result in % as a bare value.

Use these answered entries as a reference point.
CC(C)C[C@H](NC(=O)[C@@H](O)[C@H](N)Cc1ccccc1)C(=O)O	93.2
CCOc1ccc(Cc2cc([C@@H]3O[C@H](CO)[C@@H](O)[C@H](O)[C@H]3O)ccc2Cl)cc1	103

Determine its reported cell viability: Nc1ccn([C@@H]2O[C@H](CO)[C@@H](O)[C@@H]2O)c(=O)n1
101

Provide measured cell viability value, entry: OCCN1CCN(CCCN2c3ccccc3Sc3ccc(Cl)cc32)CC1
105

Specify cell viability for Cc1coc2c1C(=O)C(=O)c1c-2ccc2c(C)cccc12 and stop.
104

For C#Cc1cnc(O)nc1O , write its cell viability.
100

Consider the compound Cc1c2c(=O)n(-c3ccccc3Cl)[nH]c2cc(=O)n1Cc1ccccn1 . State its measured cell viability.
103

---

Parameter: cell viability. Scope: all listed entries.
# System: BV-173
# Method: cell viability (% survival relative to DMSO control, bortezomib = 0%); higher = less cytotoxic
# Settings: 100 nM; 72 h
# include the unit after the value

Completed entries (count: 4):
C=CCc1ccc2c(c1O)C(=O)c1ccccc1C2=O	89.9%
CN(C/C=C/C#CC(C)(C)C)Cc1cccc2ccccc12	93.3%
C[C@]12O[C@H](C[C@]1(O)CO)n1c3ccccc3c3c4c(c5c6ccccc6n2c5c31)CNC4=O	28.2%
Nc1ccn([C@@H]2O[C@H](CO)[C@@H](O)[C@@H]2O)c(=O)n1	0.292%

State its cell viability: c1ccc2c(c1)OCC(=C1NCCN1)O2
80.7%

---

# Test system: myeloid leukemia patient primary cells Pat.12
# Method: cell viability (% survival relative to DMSO control); higher = less cytotoxic
# Settings: 1 nM; 72 h
Recorded cell viability by entry

COc1c(C)c2c(c(O)c1C/C=C(\C)CCC(=O)O)C(=O)OC2 [Mycophenolic acid]	> 100%
CCOC(=O)N1c2ccc(C(F)(F)F)cc2[C@@H](N(Cc2cc(C(F)(F)F)cc(C(F)(F)F)c2)C(=O)OC)C[C@H]1CC [Torcetrapib]	93.2%
CC12CCC(O)CC1CCC1C2CCC2(C)C(C3=CC(=O)OC3)CCC12O (stereo unspecified) [Digitoxigenin]	97.4%
CC(Cc1ccc(O)c(O)c1)C(C)Cc1ccc(O)c(O)c1 (stereo unspecified) [Masoprocol]	91.2%
Cc1noc2c1-c1ccccc1C(c1ccc(Cl)cc1)=N[C@H]2CC(N)=O [CPI-0610]	96.7%

The record that follows has no cell viability shown yet.
Retrieve cell viability measured for Clc1ccc(COC(Cn2ccnc2)c2ccc(Cl)cc2Cl)cc1 (stereo unspecified) [Econazole] and print it.
89.2%

---

# Test system: HL-60
# Method: cell viability (% survival relative to DMSO control); higher = less cytotoxic
# Settings: 0.001 µM; 72 h; co-treatment: pictilisib 100 nM
Reported endpoint: cell viability (%)
State the answer as a number, implicitly in %.

The cases that follow already have their cell viability on record.
Cl.OC[C@H]1NC[C@@H](O)[C@@H](O)[C@@H]1O [1-Deoxymannojirimycin hydrochloride]	95
Cc1c2c(=O)n(-c3ccccc3Cl)[nH]c2cc(=O)n1Cc1ccccn1	96.7
CCCc1nn(C)c2c(O)nc(-c3cc(S(=O)(=O)N4CCN(C)CC4)ccc3OCC)nc12	79.6
O=C1Nc2ccccc2/C1=C\NCCc1ccc(O)c(O)c1	102
O=C(O)CCc1ccc(NCc2cccc(Oc3ccccc3)c2)cc1	99.4
NC(=O)c1ncn([C@@H]2O[C@H](CO)[C@@H](O)[C@H]2O)n1	105
C1CCC(C(CC2CCCCN2)C2CCCCC2)CC1.O=C(O)/C=C\C(=O)O (stereo not given)	90.6
Cc1coc2c1C(=O)C(=O)c1c-2ccc2c(C)cccc12	97.1

Return reported cell viability. Input compound: C[C@H]1O[C@@H](O[C@H]2[C@@H](O)C[C@H](O[C@H]3[C@@H](O)C[C@H](O[C@H]4CC[C@@]5(C)[C@H](CC[C@@H]6[C@@H]5C[C@@H](O)[C@]5(C)[C@@H](C7=CC(=O)OC7)CC[C@]65O)C4)O[C@@H]3C)O[C@@H]2C)C[C@H](O)[C@@H]1O
90.5

Quick one: give measured cell viability for CN(C)c1nc(O)c2[nH]cnc2n1 [2-Dimethylamino-6-hydroxypurine]
101

---

# Test system: myeloid leukemia patient primary cells Pat.15
# Method: cell viability (% survival relative to DMSO control); higher = less cytotoxic
# Settings: 1 nM; 72 h
The following molecules are listed with their measured cell viability values.
A number alone suffices; assume %.

Recorded results for 2 molecules are shown here.
CCN(CC)CCN(Cc1ccc(-c2ccc(C(F)(F)F)cc2)cc1)C(=O)Cn1c(SCc2ccc(F)cc2)nc(=O)c2c1CCC2	82.5
Cc1noc2c1-c1ccccc1C(c1ccc(Cl)cc1)=N[C@H]2CC(N)=O	95.1

Next:
Give cell viability for the following molecule: CCOC(=O)N1c2ccc(C(F)(F)F)cc2[C@@H](N(Cc2cc(C(F)(F)F)cc(C(F)(F)F)c2)C(=O)OC)C[C@H]1CC
98.5

---

Examples of compounds with documented cell viability follow.
# Test system: MOLM-13
# Method: cell viability (% survival relative to DMSO control, bortezomib = 0%); higher = less cytotoxic
# Settings: 100 nM; 72 h
Give just the numeric value; % need not be written.

Fill in reported cell viability for this entry: O=C(c1ccc(OCCN2CCCCC2)cc1)c1c(-c2ccc(O)cc2)sc2cc(O)ccc12
106

Give the reported cell viability for this compound. O=C1Oc2ccccc2C(=O)C1CC1C(=O)Oc2ccccc2C1=O (centres undefined)
107

Give cell viability for O=P(O)(O)C(O)(Cn1ccnc1)P(=O)(O)O
103

For the compound CN(C)c1nc(O)c2[nH]cnc2n1 [2-Dimethylamino-6-hydroxypurine] , report cell viability.
104

Answer with the recorded cell viability for the compound listed here: NC(=O)c1ncn([C@@H]2O[C@H](CO)[C@@H](O)[C@H]2O)n1
84.1

Complete the entry with cell viability for CCOC(=O)[C@@]1(CCCCCCOc2ccc(Cl)cc2)CO1
93.1

Provide only the value of recorded cell viability for Cl.OC[C@H]1NC[C@@H](O)[C@@H](O)[C@@H]1O [1-Deoxymannojirimycin hydrochloride]
96.3

Identify measured cell viability corresponding to CN(C/C=C/C#CC(C)(C)C)Cc1cccc2ccccc12
133

Please supply the value of reported cell viability for the item Sc1ncnc2nc[nH]c12
108

---

# Tested on: KU-812
# Method: cell viability (% survival relative to DMSO control, bortezomib = 0%); higher = less cytotoxic
# Settings: 10 nM; 72 h
The entries below are paired with their reported cell viability.
Report only the number, with the unit % understood.

Take a look at these entries with their results.
CCOC(=O)N1c2ccc(C(F)(F)F)cc2[C@@H](N(Cc2cc(C(F)(F)F)cc(C(F)(F)F)c2)C(=O)OC)C[C@H]1CC	112
CC(/C=C1\SC(=S)N(CC(=O)O)C1=O)=C\c1ccccc1	91.6
Cc1ccc(S(=O)(=O)NC2c3ccccc3Oc3ccccc32)cc1	101

State, for KU-812, measured cell viability of the molecule listed here: C[C@]12CC[C@H](O)CC1=CC[C@@H]1[C@@H]2CC[C@]2(C)C(c3cccnc3)=CC[C@@H]12
94.8

Answer briefly: cell viability recorded on KU-812 for CN(C/C=C/C#CC(C)(C)C)Cc1cccc2ccccc12
95.3

Provide measured cell viability on KU-812 for [N-]=[N+]=CC(=O)CC[C@H](N)C(=O)O please.
102

Give KU-812 cell viability for the following molecule: CCN(CC)CCN(Cc1ccc(-c2ccc(C(F)(F)F)cc2)cc1)C(=O)Cn1c(SCc2ccc(F)cc2)nc(=O)c2c1CCC2
93.6

Give cell viability for NC(=O)c1ncn([C@@H]2O[C@H](CO)[C@@H](O)[C@H]2O)n1 tested on KU-812.
92.7
